- System: A549 NSCLC
- protocolDescription: NCI tumour cell line growth inhibition, 48 h
quantityKind: TGI

Cc1cc(=O)oc2c3c(ccc12)OC(c1ccc(Br)cc1)CC3=O (stereo not given) :: 34.8 µM
Cc1cccc(C)c1NC(=O)CCC(=O)NC(N)=S :: > 100 µM
CC1CN=C(NS(=O)(=O)c2cc(C(=O)Nc3ccc(F)cc3)c(Cl)cc2S)NN1 (stereo not given) :: > 100 µM
CCCC(=O)OCC1OC(n2cc(F)c(=O)[nH]c2=O)C(F)C1OC(=O)CCC (stereo not given) :: > 100 µM
O=[N+]([O-])/C=C\c1c[nH]c2ccc(OCc3ccccc3)cc12 :: 14.8 µM
O=[N+]([O-])C(=C(Nc1ccccc1)Nc1ccccc1)/C(Cl)=C(\Cl)Br :: 51.1 µM
N#C/C(N)=C(\C#N)N=Cc1csc2ccccc12 :: > 100 µM
CC1(C)CCCOc2cccc(c2)OCCCC(C)(C)C1=O :: > 100 µM
COC(=O)C1ON2C(C1C(=O)OC)C(C)(C)N(O)C2(C)C (stereo not given) :: > 10 µM

# ---- query molecule ----
Q: What value of TGI has been reported for the following molecule? COC(=O)NC(=O)c1cn(CCCOC(=O)CCCCCCCCC(=O)OCCCn2cc(C(=O)NC(=O)OC)c(=O)[nH]c2=O)c(=O)[nH]c1=O
A: > 100 µM

---

Recorded TGI for the following molecules
- Tested on: OVCAR-5 ovarian
- protocolDescription: NCI tumour cell line growth inhibition, 48 h

COC(=O)C1=C(O)CCCC(CCC(C)=O)=C1 :: > 100 µM

Q: What value of TGI has been reported for the following molecule? COc1cc2c([C@@H](OC(=O)c3ccccc3)c3ccc4c(c3)OCO4)nccc2c(OC)c1OC
A: > 100 µM

Q: What value of TGI has been reported for the following molecule? CCCSc1ccc2[nH]c(N3C(=O)/C(=C/c4cc(OC)c(OC)c(OC)c4)N=C3c3ccccc3)cc2c1
A: > 37.5 µM

Q: What value of TGI has been reported for the following molecule? CCOc1ccc2ccc3cccnc3c2n1
A: > 100 µM

Q: What value of TGI has been reported for the following molecule? BrC1=CC=C2NCCCCCCN=C3C=CC(Br)=CC=C3NCCCCCCN=C2C=C1
A: > 25.5 µM

Q: What value of TGI has been reported for the following molecule? Cn1c2ccccc2n2c3ccccc3c(=O)c(C#N)c12
A: > 100 µM

---

- Tested on: HL-60(TB) leukemia
- protocolDescription: NCI tumour cell line growth inhibition, 48 h; in the data active means GI50 below about 0.43 µM; inactive means the rest
Entry note: the call must match one of 1 for active, 0 for inactive

Here are 2 compounds together with their reported answers.
O=C(Nc1ccc(Cl)cc1)c1cc(S(=O)(=O)Nc2nnc(-c3ccccc3)c(-c3ccccc3)n2)c(SCc2ccccc2)cc1Cl :: 0
[C-]#[N+][C@]12C(=O)[C@H](CCC1(C)C)C(C)(C)[C@H]1C(=O)N(C)c3cccc2c31 :: 0

Consider now this further compound.
Q: For c1cc[c]([Sn]([S]c2cccc3cccnc23)([S]c2cccc3cccnc23)[c]2ccccc2)cc1 , what call appears in the results of this test?
A: 1

---

- Test system: LXFL 529 NSCLC
- protocolDescription: NCI tumour cell line growth inhibition, 48 h
quantityKind: TGI (µM)
Numeric answer only, unit µM assumed.

Answered cases to consult:
Cc1nc2c(n1CCN(C)C)C(=O)c1ccccc1C2=O :: 37.3
O=[N+]([O-])[O-].O=[N+]([O-])[O-].[Au].[Au].c1ccc([P-]c2ccccc2)cc1.c1ccc([P-]c2ccccc2)cc1 :: 32.7

# ---- query molecule ----
Q: What value of TGI has been reported for the following molecule? CCc1cccc(CC)c1NC(=O)C1=C(C)NC(C)=C(C(=O)Nc2c(CC)cccc2CC)C1c1ccc2c(c1)OCO2
A: 29.3
